Give measured CC50 for each item. Keep answers brief.
Return type: number; implicit unit µM.

The recorded CC50 with OVCAR-5 for C=C1C(=O)O[C@H]2[C@H]1CC/C(COC(=O)N1CCC(F)(F)CC1)=C\CC[C@@]1(C)O[C@@H]21 [JVM 2-66] was 48.1

The recorded CC50 with OVCAR-5 for C=C1C(=O)O[C@H]2[C@H]1CC/C(COC(=O)NCCN1CCCCC1)=C\CC[C@@]1(C)O[C@@H]21 [JVM 2-13] was 55.2

The recorded CC50 with OVCAR-5 for C=C1C(=O)O[C@H]2[C@H]1CC/C(COC(=O)N1CCN(C)CC1)=C\CC[C@@]1(C)O[C@@H]21 [JVM 2-44] was 68.6

The recorded CC50 with OVCAR-5 for C=C1C(=O)O[C@H]2[C@H]1CC/C(COC(=O)NCCO)=C\CC[C@@]1(C)O[C@@H]21 [JVM 2-50] was 92.4

The recorded CC50 with OVCAR-5 for C=C1C(=O)O[C@H]2[C@H]1CC/C(COC(=O)NC)=C\CC[C@@]1(C)O[C@@H]21 [JVM 2-57] was 44.3

The recorded CC50 with OVCAR-5 for C=C1C(=O)O[C@H]2[C@H]1CC/C(COC(=O)CCC(=O)N1CCC(C)CC1)=C\CC[C@@]1(C)O[C@@H]21 [JVM 2-70] was 49.9

* * *

quantityMeasured: CC50

The recorded CC50 with SF-539 for C=C1C(=O)O[C@H]2[C@H]1CC/C(COC(=O)NC)=C\CC[C@@]1(C)O[C@@H]21 [JVM 2-57] was 42.9 µM

The recorded CC50 with SF-539 for C=C1C(=O)O[C@H]2[C@H]1CC/C(COC(=O)NCCN1CCCCC1)=C\CC[C@@]1(C)O[C@@H]21 [JVM 2-13] was 48.4 µM

The recorded CC50 with SF-539 for C=C1C(=O)O[C@H]2[C@H]1CC/C(COC(=O)N1CCN(C)CC1)=C\CC[C@@]1(C)O[C@@H]21 [JVM 2-44] was 55.1 µM

The recorded CC50 with SF-539 for C=C1C(=O)O[C@H]2[C@H]1CC/C(COC(=O)NCCO)=C\CC[C@@]1(C)O[C@@H]21 [JVM 2-50] was 56.2 µM

The recorded CC50 with SF-539 for C=C1C(=O)O[C@H]2[C@H]1CC/C(COC(=O)N1CCC(F)(F)CC1)=C\CC[C@@]1(C)O[C@@H]21 [JVM 2-66] was 12.3 µM

* * *

Give measured Percent Growth for each item. Keep answers brief.
Test system: UACC-257
assayDetails: panel of 60 human tumor cell lines, growth inhibition (Melanoma)
statedConditions: UACC-257; Log10 Concentration −5.0
Return type: number; implicit unit %.

The recorded Percent Growth with UACC-257 for C=C1C(=O)O[C@H]2[C@H]1CC/C(COC(=O)NC)=C\CC[C@@]1(C)O[C@@H]21 was 24

The recorded Percent Growth with UACC-257 for C=C1C(=O)O[C@H]2[C@H]1CC/C(COC(=O)N1CCN(C)CC1)=C\CC[C@@]1(C)O[C@@H]21 was 50

The recorded Percent Growth with UACC-257 for C=C1C(=O)O[C@H]2[C@H]1CC/C(COC(=O)OCCCN1CCCCC1)=C\CC[C@@]1(C)O[C@@H]21 was 35

The recorded Percent Growth with UACC-257 for C=C1C(=O)O[C@H]2[C@H]1CC/C(COC(=O)NCCO)=C\CC[C@@]1(C)O[C@@H]21 was 44

* * *

Tested on: COLO 205
assayDetails: panel of 60 human tumor cell lines, growth inhibition (Colon Cancer)
statedConditions: COLO 205; Log10 Concentration −6.0
quantityMeasured: Percent Growth (%)
Return type: number; implicit unit %.

Reported Percent Growth for C=C1C(=O)O[C@H]2[C@H]1CC/C(COC(=O)NCCN1CCCCC1)=C\CC[C@@]1(C)O[C@@H]21 was 90

Reported Percent Growth for C=C1C(=O)O[C@H]2[C@H]1CC/C(COC(=O)CCC(=O)N1CCC(C)CC1)=C\CC[C@@]1(C)O[C@@H]21 was 104

Reported Percent Growth for C=C1C(=O)O[C@H]2[C@H]1CC/C(COC(=O)NC)=C\CC[C@@]1(C)O[C@@H]21 was 95

Reported Percent Growth for C=C1C(=O)O[C@H]2[C@H]1CC/C(COC(=O)NCCO)=C\CC[C@@]1(C)O[C@@H]21 was 108

* * *

Dear all, this message contains CC50 results, target or system SNB-75.

Reported CC50 for C=C1C(=O)O[C@H]2[C@H]1CC/C(COC(=O)NCCN1CCCCC1)=C\CC[C@@]1(C)O[C@@H]21 [JVM 2-13] was 48.8 µM

Reported CC50 for C=C1C(=O)O[C@H]2[C@H]1CC/C(COC(=O)NC)=C\CC[C@@]1(C)O[C@@H]21 [JVM 2-57] was > 100 µM

Reported CC50 for C=C1C(=O)O[C@H]2[C@H]1CC/C(COC(=O)N1CCC(F)(F)CC1)=C\CC[C@@]1(C)O[C@@H]21 [JVM 2-66] was 47.2 µM

Reported CC50 for C=C1C(=O)O[C@H]2[C@H]1CC/C(COC(=O)CCC(=O)N1CCC(C)CC1)=C\CC[C@@]1(C)O[C@@H]21 [JVM 2-70] was 57 µM

Reported CC50 for C=C1C(=O)O[C@H]2[C@H]1CC/C(COC(=O)N1CCN(C)CC1)=C\CC[C@@]1(C)O[C@@H]21 [JVM 2-44] was 61.2 µM

Reported CC50 for C=C1C(=O)O[C@H]2[C@H]1CC/C(COC(=O)NCCO)=C\CC[C@@]1(C)O[C@@H]21 [JVM 2-50] was > 100 µM

* * *

Give measured CC50 for each item. Keep answers brief.
Test system: LOX IMVI
assayDetails: panel of 60 human tumor cell lines, growth inhibition (Melanoma)
statedConditions: Homo sapiens, read-out: LC50
Number first, unit second.

Reported CC50 for C=C1C(=O)O[C@H]2[C@H]1CC/C(COC(=O)OC)=C\CC[C@@]1(C)O[C@@H]21 was 43.3 µM

Reported CC50 for C=C1C(=O)O[C@H]2[C@H]1CC/C(COC(=O)OCCN(C)C)=C\CC[C@@]1(C)O[C@@H]21 was 47.5 µM

Reported CC50 for C=C1C(=O)O[C@H]2[C@H]1CC/C(COC(=O)NCCN1CCOCC1)=C\CC[C@@]1(C)O[C@@H]21 was 47 µM

Reported CC50 for C=C1C(=O)O[C@H]2[C@H]1CC/C(COC(=O)NCCN1CCCC1)=C\CC[C@@]1(C)O[C@@H]21 was 60.6 µM

* * *

Test system: MDA-MB-468
assayDetails: panel of 60 human tumor cell lines, growth inhibition (Breast Cancer)
statedConditions: MDA-MB-468; Log10 Concentration −5.0
Give measured Percent Growth for each item. Keep answers brief.
Return type: number; implicit unit %.

Reported Percent Growth for C=C1C(=O)O[C@H]2[C@H]1CC/C(COC(=O)NC)=C\CC[C@@]1(C)O[C@@H]21 [JVM 2-57] was −18

Reported Percent Growth for C=C1C(=O)O[C@H]2[C@H]1CC/C(COC(=O)N1CCN(C)CC1)=C\CC[C@@]1(C)O[C@@H]21 [JVM 2-44] was −5

Reported Percent Growth for C=C1C(=O)O[C@H]2[C@H]1CC/C(COC(=O)N1CCC(F)(F)CC1)=C\CC[C@@]1(C)O[C@@H]21 [JVM 2-66] was −48

Reported Percent Growth for C=C1C(=O)O[C@H]2[C@H]1CC/C(COC(=O)NCCN1CCCCC1)=C\CC[C@@]1(C)O[C@@H]21 [JVM 2-13] was −35

* * *

System: A549/ATCC
assayDetails: panel of 60 human tumor cell lines, growth inhibition (Non-Small Cell Lung Cancer)
statedConditions: Homo sapiens, A549, read-out: LC50
quantityMeasured: CC50 (µM)
Return type: number; implicit unit µM.

Reported CC50 for C=C1C(=O)O[C@H]2[C@H]1CC/C(COC(=O)NCCc1ccccn1)=C\CC[C@@]1(C)O[C@@H]21 [JVM 61] was 92

Reported CC50 for C=C1C(=O)O[C@H]2[C@H]1CC/C(COC(=O)OCCN(C)C)=C\CC[C@@]1(C)O[C@@H]21 [JVM 2-35] was 71.6

Reported CC50 for C=C1C(=O)O[C@H]2[C@H]1CC/C(COC(=O)OCCCN1CCCCC1)=C\CC[C@@]1(C)O[C@@H]21 [JVM 2-26] was 67.2

* * *

Test system: RXF 393
assayDetails: panel of 60 human tumor cell lines, growth inhibition (Renal Cancer)
statedConditions: Homo sapiens, RXF 393, RXF 393; 5-dose assay
# True = GI50 below 2000 nM (exclusive); False = GI50 at/above 2000 nM

## Task State whether 2000 nM exceeds GI50 recorded for C=C1C(=O)O[C@H]2[C@H]1CC/C(COC(=O)N1CCC(F)(F)CC1)=C\CC[C@@]1(C)O[C@@H]21 .
## Result True

## Task State whether 2000 nM exceeds GI50 recorded for C=C1C(=O)O[C@H]2[C@H]1CC/C(COC(=O)NCCc1ccccn1)=C\CC[C@@]1(C)O[C@@H]21 .
## Result False

## Task State whether 2000 nM exceeds GI50 recorded for C=C1C(=O)O[C@H]2[C@H]1CC/C(COC(=O)NCCN1CCOCC1)=C\CC[C@@]1(C)O[C@@H]21 .
## Result False

## Task State whether 2000 nM exceeds GI50 recorded for C=C1C(=O)O[C@H]2[C@H]1CC/C(COC(=O)NCCN1CCCC1)=C\CC[C@@]1(C)O[C@@H]21 .
## Result False

## Task State whether 2000 nM exceeds GI50 recorded for C=C1C(=O)O[C@H]2[C@H]1CC/C(COC(=O)Nc1n[nH]c(SC)n1)=C\CC[C@@]1(C)O[C@@H]21 .
## Result True
